Just for reference, PubChem BioAssay (NCI) is where these values come from.

# Experimental Protocol: NCI Yeast Anticancer Drug Screen. Data for the mec2-1 strain (AID 157)
# Run Conditions: S. cerevisiae mec2-1 strain, stronger effect = higher value; at 50.0 µM unless noted
Compounds without any hit were thinned out: in the full panel of roughly 79,000, 15% have a hit.
Outcome Measure: growth inhibition (%)
Give bare numbers, in %.

Record excerpt, results attached:
molecule=CC(C)C(=O)Nc1nc2nc[nH]c2c(=O)[nH]1 observed_measurement=-23.6
molecule="Oc1cc(O)c2c(c1)OC(c1ccc(O)c(O)c1)C(O)C2O (stereo not given)" observed_measurement=6.6
molecule="CCC(C)C(O)C(C)C (stereo not given)" observed_measurement=-18.1
molecule=N#Cc1[nH]c(=O)n(-c2ccccc2)c1N observed_measurement=-57.8

Take each entry in turn and give its growth inhibition.
1. COc1ccc2c3c([nH]c2c1N)C(C)NCC3 (stereo not given)
2. CN(C)C(=O)OC(Cn1cncn1)(Cn1cncn1)c1ccc(Cl)cc1Cl
3. C[N+]1(CC(=O)c2ccc(Cl)cc2)CCOCC1
4. Cc1[nH]c2c(ccc3c2ccc2c(=O)c(C)c(C)[nH]c23)c(=O)c1C
5. CN1CC2=C(NC(=S)NC2c2ccc(Cl)cc2)/C(=C/c2ccc(Cl)cc2)C1 (stereo not given)
6. O=c1oc(-c2ccc([N+](=O)[O-])cc2Cl)nc2ccccc12
7. CCOC(=O)c1cc2c(-c3ccccc3)c(-c3ccccc3)c(-c3ccccc3)c(-c3ccccc3)n2n1
8. CCN(CC)CCN(CC)C(=S)Nc1ccccc1

Result ::
1: -18.9; 2: 13; 3: 7.45; 4: -7.45; 5: 4.45; 6: 23.4; 7: 15.2; 8: 21.2

Quick batch: growth inhibition for everything below.
1. Cc1cc(C)c2c(=O)n(-c3ccccc3C)c(=S)n(-c3ccccc3C)c2n1
2. CN(C)CCNC(=O)Cn1ccc(=O)c2ccc([N+](=O)[O-])cc21
3. O=C1CCCC(=O)N1n1c(Cc2ccc(Cl)cc2)n[nH]c1=O

Result ::
1. 8.35
2. 6.55
3. -11.8

Give growth inhibition for each listed item.
1. Cc1ccnc(NS(=O)(=O)c2ccc(N=[N+]=[N-])cc2)n1
2. C/C(=N/NC(N)=S)c1c(C)[nH]c2ccccc12

Result ::
[-6, 10.2]
